- assay_explanation: gradient 5% acetonitrile 3 min, to 50% in 2 min, to 85% in 15 min, held 3 min, 100 µL/min
- condition_description: column: Zorbax Extend-C18 2.1 x 50 mm; eluents: water / acetonitrile, 0.1% formic acid
Please mark Yes if the recorded RP-LC retention time is equal to or greater than 800 s, and No if it falls below.

# count of solved cases: 3
| compound | answer_label |
| --- | --- |
| COc1ccc(OCC(=O)N2CCN(Cc3noc4ccccc34)CC2)cc1 | No |
| Cc1noc([C@@H]2CC(F)(F)CN2C(=O)c2nccn2C)n1 | No |
| Cc1oc(-c2[nH]ncc2C(=O)N(C)C)cc1S(=O)(=O)NC1CC1 | No |

Textbook exercise: given the entry CCOc1ccc(-c2ccc(N3CCN(C(=O)c4ccc5ncsc5c4)CC3)nn2)cc1 , state whether its RP-LC retention time is greater than or equal to 800 s. No

Is reported RP-LC retention time greater than or equal to 800 s here: COc1ccc(C(=O)Nc2cccn3nc(C4CCC4)nc23)cc1 Yes

Quick check, RP-LC retention time >= 800 s? CC(=O)Nc1nsc(N2CCC(C(=O)NCc3ccc4c(c3)OCO4)CC2)n1 No

Is reported RP-LC retention time greater than or equal to 800 s here: CC(=O)CC(=O)Nc1ccc(Cl)c(C(F)(F)F)c1 Yes

Is RP-LC retention time for COc1cc(Nc2c(C(=O)N3CCCCC3C)cnc3nc(C)ccc23)cc(OC)c1 (stereo not given) at or above 800 s? No

Quick check, RP-LC retention time >= 800 s? COc1ccc(-c2nc(-c3cn(Cc4ccc(F)cc4)nn3)no2)cc1 Yes

Cited source for all entries: the METLIN SMRT retention time set (Domingo-Almenara et al. 2019)
